The reported measurements were obtained from PubChem BioAssay (NCI).

System: MDA-MB-231 breast
Assay: NCI tumour cell line growth inhibition, 48 h
# TGI annotations
measurement_kind: TGI

{"columns": ["compound", "assay_system", "val"],
 "data": [
  ["Cn1cnc([N+](=O)[O-])c1Sc1ncnc2c1ncn2C1OC(CO)C(O)C1O (stereo unspecified)", "MDA-MB-231 breast", "> 100 µM"],
  ["O=Nc1c(O)ccc2ccccc12", "MDA-MB-231 breast", "10.2 µM"],
  ["CC1OC(=O)c2ccccc2NC1=O (stereo unspecified)", "MDA-MB-231 breast", "> 100 µM"],
  ["COCN1C(=O)[C@@H]2CCCN2C(=O)c2cc([N+](=O)[O-])ccc21", "MDA-MB-231 breast", "> 100 µM"],
  ["C[C@@H]1C(O)CC[C@H](C)C12CC=CC2=O (stereo partly specified)", "MDA-MB-231 breast", "> 100 µM"],
  ["NC(CCCCNc1ccn(C2OC(CO)C(O)C2O)c(=O)n1)C(=O)O (stereo unspecified)", "MDA-MB-231 breast", "> 100 µM"]
]}

* * *

# GI50 annotations
Tested on: EKVX NSCLC
Test: NCI tumour cell line growth inhibition, 48 h
measurement_kind: GI50

{"columns": ["compound", "val"],
 "data": [
  ["COC(=O)CCC1=C(C)c2cc3[n-]c(cc4nc(cc5[n-]c(cc1n2)c(CCC(=O)OC)c5C)C=C4C)cc3C.[Cd+2]", "5.89 µM"],
  ["CN(C)c1ccc(/C=C/c2ccnc3ccccc23)cc1", "3.19 µM"],
  ["COc1ccc2c3c(c(OCCCN(C)C)nc2c1)-c1ccc(Cl)cc1C3=O", "7.17 µM"],
  ["COc1cc(C2C(C#N)=C(N)OC3=C2C(=O)c2ccccc2C3=O)cc(OC)c1OC (stereo unspecified)", "12.6 µM"],
  ["COc1ccc(NC(=O)c2cc(OC)c(OC)c(OC)c2)cc1O", "> 100 µM"],
  ["Fc1ccc(-c2ncn(C3CCNCC3)c2-c2ccnc(Oc3cccc(F)c3)n2)cc1", "> 25 µM"],
  ["COc1ccc(-c2ccc(-c3ccc(C(=N)N)cn3)s2)cc1Cl", "1.75 µM"],
  ["CC#CC(=O)N1CCC[C@H]1c1nc(-c2ccc(C(=O)Nc3ccccn3)cc2)c2c(N)nccn12", "35 µM"],
  ["CC/C=C\\CCC/C=C1/C(=O)C=C[C@@H]1C/C=C\\CCCC(=O)O", "4.02 µM"],
  ["Cn1cnc([N+](=O)[O-])c1Sc1ncnc2c1ncn2C1OC(CO)C(O)C1O (stereo unspecified)", "86.2 µM"],
  ["O=[N+]([O-])c1ccc2c(N=Nc3c(O)ccc4ccccc34)c(O)cc(S(=O)(=O)O)c2c1", "39.4 µM"]
]}

* * *

# TGI annotations
System: LOX IMVI melanoma
Experiment: NCI tumour cell line growth inhibition, 48 h
measurement_kind: TGI

{"columns": ["compound", "assay_system", "measurement_kind", "val"],
 "data": [
  ["COc1cc(Br)c(CC2=NCCc3cc(OC)c(OC)cc32)cc1OC", "LOX IMVI melanoma", "TGI", "> 100 µM"],
  ["C[C@H]1[C@@H](OCC(CO[C@H]2O[C@@H]3O[C@@]4(C)CC[C@H]5[C@H](C)CC[C@@H]([C@H]2C)[C@@]35OO4)=NOCC(=O)O)OC2O[C@@]3(C)CC[C@H]4[C@H](C)CC[C@@H]1[C@@]24OO3 (some centres undefined)", "LOX IMVI melanoma", "TGI", "13.3 µM"],
  ["COc1ccc(C)cc1NC(=S)N/N=C/c1ccc(SC)cc1", "LOX IMVI melanoma", "TGI", "> 100 µM"],
  ["Cc1[nH]c2ccccc2c1C=Nc1ccc(Oc2ccccc2)cc1", "LOX IMVI melanoma", "TGI", "32.8 µM"],
  ["CCC1(CN(C)C)CC/C(=C\\c2ccc3c(c2)OCO3)C1=O (centres undefined)", "LOX IMVI melanoma", "TGI", "> 100 µM"],
  ["CCOC(=O)c1nc2cc(C(F)(F)F)ccc2nc1Nc1ccc(Cl)c(Cl)c1", "LOX IMVI melanoma", "TGI", "> 100 µM"],
  ["c1ccc(-c2nc(N3CCNCC3)c3nc(-c4ccccc4)oc3n2)cc1", "LOX IMVI melanoma", "TGI", "3.17 µM"],
  ["O=C1c2ccccc2C(=O)N1c1ccc(OCCN2CCCCC2)cc1", "LOX IMVI melanoma", "TGI", "> 100 µM"],
  ["COC(=O)C1(Cc2cccc(Cl)c2)CCCCCCN1C(=O)c1ccccc1 (centres undefined)", "LOX IMVI melanoma", "TGI", "32.8 µM"],
  ["C=C(Cl)C(Cl)(CBr)CCC(Cl)C(C)(C)Cl (centres undefined)", "LOX IMVI melanoma", "TGI", "28 µM"],
  ["Cn1ccnc1C(=O)/C=C/c1ccc(C(=O)Nc2nc3ccccc3[nH]2)cc1", "LOX IMVI melanoma", "TGI", "> 25 µM"],
  ["CN(/N=C\\c1ccc2ccccc2c1)C1=NCCCCN1", "LOX IMVI melanoma", "TGI", "28.7 µM"],
  ["CC1=C(C(=O)OC(C)C)C(c2ccccc2[N+](=O)[O-])C(C(=O)OC(CO[N+](=O)[O-])CO[N+](=O)[O-])=C(C)N1 (centres undefined)", "LOX IMVI melanoma", "TGI", "11.3 µM"],
  ["CC1(C)OCN(c2ccc(Cl)cc2)Cn2c1nc1ccccc12", "LOX IMVI melanoma", "TGI", "> 100 µM"],
  ["COc1cccc(C2C(C(=O)Nc3cc(=O)n(C)c(=O)n3C)=C(C)NC(C)=C2C(=O)Nc2cc(=O)n(C)c(=O)n2C)c1O", "LOX IMVI melanoma", "TGI", "> 100 µM"],
  ["C=C1C(C)C2C(Cc3ccccc3)NC(=O)C23C(OC(C)=O)/C=C/C(C)(O)CC(C)C/C=C/C3C1O (centres undefined)", "LOX IMVI melanoma", "TGI", "19.2 µM"],
  ["S=C1C=C(c2ccccc2)Sc2ccccc2N1", "LOX IMVI melanoma", "TGI", "> 100 µM"],
  ["CC(C)(C)OC(=O)NC(Cc1ccc([N+](=O)[O-])cc1)C(=O)NC(CCCCNC(=O)OCc1ccccc1)C(=O)ON1C(=O)CCC1=O (centres undefined)", "LOX IMVI melanoma", "TGI", "> 100 µM"],
  ["COc1ccc(/C=C\\c2cc(OC)c(OC)c(OC)c2)c(NS(=O)(=O)c2ccc(C)cc2)c1O", "LOX IMVI melanoma", "TGI", "> 100 µM"]
]}

* * *

System: SF-268 CNS
Assay: NCI tumour cell line growth inhibition, 48 h

{"columns": ["molecule", "assay_system", "sign_qualifier", "TGI (µM)"],
 "data": [
  ["CC[C@H](C)[C@H](NC(=O)C12C3C4C1C1C2C3C41NC(C)=O)C(=O)N(C)[C@H](C[C@@H](OC(C)=O)c1nc(C(=O)N[C@@H](Cc2ccccc2)C[C@H](C)C(=O)OC)cs1)C(C)C (stereo not given in full)", "SF-268 CNS", ">", 14.3],
  ["Cn1ccnc1C(=O)/C=C/c1ccc(C(=O)Nc2nc3ccccc3[nH]2)cc1", "SF-268 CNS", ">", 25],
  ["COc1ccc(/C=C2\\N=C3SC=C(N)N3C2=O)cc1", "SF-268 CNS", "=", 7.29],
  ["COC(=O)C1=C(C)NC(C)=C([N+](=O)[O-])C1c1cccc(NO)c1 (stereo not given)", "SF-268 CNS", ">", 100],
  ["Cn1c(O)c(C(=O)Nc2ccc([N+](=O)[O-])cc2)c(=O)n(C)c1=S", "SF-268 CNS", "=", 10.7]
]}

* * *

# log10 of TGI annotations
Tested on: HT29 colon
Assay: NCI tumour cell line growth inhibition, 48 h
measurement_kind: log10 of TGI (log10 of the value in µM)

{"columns": ["molecule", "assay_system", "log10 of TGI"],
 "data": [
  ["CC[C@H](C)[C@H](NC(=O)C12C3C4C1C1C2C3C41NC(C)=O)C(=O)N(C)[C@H](C[C@@H](OC(C)=O)c1nc(C(=O)N[C@@H](Cc2ccccc2)C[C@H](C)C(=O)OC)cs1)C(C)C (stereo partly specified)", "HT29 colon", 0.39],
  ["C[C@@H]1CC[C@@]2(OC1)O[C@H]1C[C@H]3[C@@H]4CC=C5C[C@@H](O[C@@H]6O[C@H](CO)[C@@H](O[C@@H]7O[C@@H](CO)[C@H](O)[C@H]7O)[C@H](O)[C@H]6O[C@@H]6O[C@@H](C)[C@H](O)[C@@H](O)[C@H]6O)CC[C@]5(C)[C@H]4CC[C@]3(C)[C@H]1[C@@H]2C", "HT29 colon", 0.39],
  ["O=Nc1c(O)ccc2ccccc12", "HT29 colon", 1.03],
  ["Oc1c(CN2CCCC2)cc(COCc2ccccc2)c2cccnc12", "HT29 colon", 1.42],
  ["CC(C)[Si]1(C(C)C)OCC2OC(n3ccc(=O)[nH]c3=O)C(O)(CO)C2O[Si](C(C)C)(C(C)C)O1 (stereo unspecified)", "HT29 colon", 1.46]
]}
